The reported measurements were obtained from patent US10770169B2.

System: panel of 55 breast cancer cell lines
Test: Cell growth inhibition assay (Cell Titer Glo, 72 h, 9 doses; GI50, TGI, LC50)
Type: cell-based, human
Conditions: cell line MDAMB175VII; censored GI50 values; value is the negative log10 of mol/L

compound	GI50
COc1ccc(C2=N[C@@H](c3ccc(Cl)cc3)[C@@H](c3ccc(Cl)cc3)N2C(=O)N2CCNC(=O)C2)c(OC(C)C)c1	5.08
O=C1NC(=O)/C(=C/c2ccc3nccc(-c4ccncc4)c3c2)S1 [GSK1059615B]	6.18
COc1ncc(-c2ccc3nccc(-c4ccnnc4)c3c2)cc1NS(=O)(=O)c1ccc(F)cc1F [GSK2126458A]	8.29
COc1cc2c(Nc3ccc(NC(=O)c4ccccc4)cc3)ncnc2cc1OCCCN1CCOCC1	4.28

---

# GI50 per entry
System: panel of 55 breast cancer cell lines
Experiment: Cell growth inhibition assay (Cell Titer Glo, 72 h, 9 doses; GI50, TGI, LC50)
Assay type: cell-based, human
Settings: Homo sapiens, HCC1806, cell line HCC1806; read-out: GI50 (converted)
measurementType: GI50 (nM)

smilesData	systemName	measurementType	reportedValue
CO[C@H]1C[C@@H]2CC[C@@H](C)[C@@](O)(O2)C(=O)C(=O)N2CCCC[C@H]2C(=O)O[C@H]([C@H](C)C[C@@H]2CC[C@@H](OC(=O)C(C)(CO)CO)[C@H](OC)C2)CC(=O)[C@H](C)/C=C(\C)[C@@H](O)[C@@H](OC)C(=O)[C@H](C)C[C@H](C)/C=C/C=C/C=C/1C	panel of 55 breast cancer cell lines	GI50	20400
O=C1c2ccccc2-[n+]2ccc3c([nH]c4ccccc43)c21	panel of 55 breast cancer cell lines	GI50	257
NS(=O)(=O)OC[C@@H]1C[C@@H](n2ccc3c(N[C@H]4CCc5ccccc54)ncnc32)C[C@@H]1O	panel of 55 breast cancer cell lines	GI50	21.4
COc1cc(Nc2c(C#N)cnc3cc(OCCCN4CCN(C)CC4)c(OC)cc23)c(Cl)cc1Cl	panel of 55 breast cancer cell lines	GI50	2090
CCC1=C[C@@H]2CN(C1)Cc1c([nH]c3ccccc13)[C@@](C(=O)OC)(c1cc3c(cc1OC)N(C)[C@H]1[C@@](O)(C(=O)OC)[C@H](OC(C)=O)[C@]4(CC)C=CCN5CC[C@]31[C@@H]54)C2	panel of 55 breast cancer cell lines	GI50	11.7

---

Tested on: panel of 55 breast cancer cell lines
Experiment: Cell growth inhibition assay (Cell Titer Glo, 72 h, 9 doses; GI50, TGI, LC50)
Type: cell-based, human
Conditions: Homo sapiens, UACC-812, cell line UACC812; read-out: GI50 (converted)
measurementType: log10(GI50) (log10 of the value in nM)

compound	systemName	log10(GI50)
CS(=O)(=O)CCNCc1ccc(-c2ccc3ncnc(Nc4ccc(OCc5cccc(F)c5)c(Cl)c4)c3c2)o1	panel of 55 breast cancer cell lines	2.66
CCNCCCNC/C=C\CNCCCNCC	panel of 55 breast cancer cell lines	5.53
Cc1[nH]c2ccccc2c1CCNCc1ccc(/C=C/C(=O)NO)cc1	panel of 55 breast cancer cell lines	2.11
Cn1c(=O)n(-c2ccc(C(C)(C)C#N)cc2)c2c3cc(-c4cnc5ccccc5c4)ccc3ncc21	panel of 55 breast cancer cell lines	4.22
CC(C)C[C@H](NC(=O)[C@H](Cc1ccccc1)NC(=O)c1cnccn1)B(O)O	panel of 55 breast cancer cell lines	1.38
CCC1=C[C@@H]2CN(C1)Cc1c([nH]c3ccccc13)[C@@](C(=O)OC)(c1cc3c(cc1OC)N(C)[C@H]1[C@@](O)(C(=O)OC)[C@H](OC(C)=O)[C@]4(CC)C=CCN5CC[C@]31[C@@H]54)C2	panel of 55 breast cancer cell lines	1.87
CC(=O)O[C@H]1C(=O)[C@@]2(C)[C@H]([C@H](OC(=O)c3ccccc3)[C@]3(O)C[C@H](OC(=O)[C@H](O)[C@@H](NC(=O)c4ccccc4)c4ccccc4)C(C)=C1C3(C)C)[C@]1(OC(C)=O)CO[C@@H]1C[C@@H]2O	panel of 55 breast cancer cell lines	0.96
CN(C)C/C=C/C(=O)Nc1cc2c(Nc3ccc(F)c(Cl)c3)ncnc2cc1O[C@H]1CCOC1	panel of 55 breast cancer cell lines	0.45
COc1cccc2c1C(=O)c1c(O)c3c(c(O)c1C2=O)C[C@@](O)(C(=O)CO)C[C@@H]3O[C@H]1C[C@H](N)[C@H](O)[C@H](C)O1	panel of 55 breast cancer cell lines	1.87
NS(=O)(=O)OC[C@@H]1C[C@@H](n2ccc3c(N[C@H]4CCc5ccccc54)ncnc32)C[C@@H]1O	panel of 55 breast cancer cell lines	3.00
C/C(=C\c1csc(C)n1)[C@@H]1C[C@@H]2O[C@]2(C)CCC[C@H](C)[C@H](O)[C@@H](C)C(=O)C(C)(C)[C@@H](O)CC(=O)N1 [Ixabepilone]	panel of 55 breast cancer cell lines	3.77
COc1cccc2c1C(=O)c1c(O)c3c(c(O)c1C2=O)C[C@@](O)(C(=O)CO)C[C@@H]3O[C@H]1C[C@H](N)[C@@H](O)[C@H](C)O1 [Epirubicin]	panel of 55 breast cancer cell lines	2.40
C#Cc1cccc(Nc2ncnc3cc(OCCOC)c(OCCOC)cc23)c1	panel of 55 breast cancer cell lines	4.09

---

Test system: luminal, basal, claudin-low and ERBB2AMP breast cancer cell lines
Assay: Associations of clinically relevant subtypes and response (non-parametric ANOVA or t-test on GI50 ranks)
Format: cell-based, human
Details: Table 6; most sensitive subtype, FDR p<0.20

molecule	Subtype specificity
O=C1NC(=O)/C(=C/c2ccc3nccc(-c4ccncc4)c3c2)S1	Luminal/ERBB2AMP
CCN(CC)CCCCNc1ncc2cc(-c3cc(OC)cc(OC)c3)c(NC(=O)NC(C)(C)C)nc2n1	Claudin-low
N.N.[Cl][Pt][Cl] [Cisplatin]	Basal
NC(=O)Nc1sc(-c2ccc(F)cc2)cc1C(N)=O	Basal + Claudin-low
O=C1c2ccccc2-[n+]2ccc3c([nH]c4ccccc43)c21	Luminal
COc1cc([C@@H]2c3cc4c(cc3[C@@H](O[C@@H]3O[C@@H]5CO[C@@H](C)O[C@H]5[C@H](O)[C@H]3O)[C@H]3COC(=O)[C@H]23)OCO4)cc(OC)c1O [Etoposide]	Claudin-low
COc1cc2ncnc(Nc3ccc(F)c(Cl)c3)c2cc1OCCCN1CCOCC1	ERBB2AMP
Cc1[nH]c2ccccc2c1CCNCc1ccc(/C=C/C(=O)NO)cc1	Luminal
CCNCCCNC/C=C\CNCCCNCC	Basal
C[C@@H](Oc1cc(-n2cnc3ccc(CN4CCN(C)CC4)cc32)sc1C(N)=O)c1ccccc1C(F)(F)F	Basal + Claudin-low
CS(=O)(=O)CCNCc1ccc(-c2ccc3ncnc(Nc4ccc(OCc5cccc(F)c5)c(Cl)c4)c3c2)o1	Luminal/ERBB2AMP
C/C(=C\c1csc(C)n1)[C@@H]1C[C@@H]2O[C@]2(C)CCC[C@H](C)[C@H](O)[C@@H](C)C(=O)C(C)(C)[C@@H](O)CC(=O)N1 [Ixabepilone]	Basal + Claudin-low
CC/C(=C(\c1ccccc1)c1ccc(OCCN(C)C)cc1)c1ccccc1	Luminal
O=C(CCCCCCC(=O)Nc1ccccc1)NO	Luminal
CN(C)C/C=C/C(=O)Nc1cc2c(Nc3ccc(F)c(Cl)c3)ncnc2cc1O[C@H]1CCOC1	ERBB2AMP
Cc1cc(Nc2cc(N3CCN(C)CC3)nc(Sc3ccc(NC(=O)C4CC4)cc3)n2)n[nH]1	not ERBB2AMP
CC(=O)O[C@@]12CO[C@@H]1C[C@H](O)[C@@]1(C)C(=O)[C@H](O)C3=C(C)[C@@H](OC(=O)[C@H](O)[C@@H](NC(=O)OC(C)(C)C)c4ccccc4)C[C@@](O)([C@@H](OC(=O)c4ccccc4)[C@H]21)C3(C)C	Basal
C#Cc1cccc(Nc2ncnc3cc(OCCOC)c(OCCOC)cc23)c1	Basal
CCn1cc(-c2ccnc3[nH]c(-c4cccc(CN(C)C)c4)cc23)c(-c2ccc(NC(=O)N(C)C)cc2)n1	Claudin-low
CCNCCCCNCCCCNCCCCNCCCCNCC=CCNCCCCNCCCCNCCCCNCCCCNCC.Cl.Cl.Cl.Cl.Cl.Cl.Cl.Cl.Cl.Cl (stereo in doubt)	not ERBB2AMP
CO[C@H]1C[C@@H]2CC[C@@H](C)[C@@](O)(O2)C(=O)C(=O)N2CCCC[C@H]2C(=O)O[C@H]([C@H](C)C[C@@H]2CC[C@@H](OC(=O)C(C)(CO)CO)[C@H](OC)C2)CC(=O)[C@H](C)/C=C(\C)[C@@H](O)[C@@H](OC)C(=O)[C@H](C)C[C@H](C)/C=C/C=C/C=C/1C	Luminal/ERBB2AMP
Cc1cc(C(C)Nc2ccccc2)c2nc(N3CCOCC3)cc(=O)n2c1 (stereo not shown)	Luminal
COc1ncc(-c2ccc3nccc(-c4ccnnc4)c3c2)cc1NS(=O)(=O)c1ccc(F)cc1F	Luminal/ERBB2AMP
COc1cc2ncnc(Nc3cccc(Cl)c3)c2cc1OC	ERBB2AMP
N.N.O=C([O-])C1(C(=O)[O-])CCC1.[Pt+2]	Basal + Claudin-low
C=CCNC1=C2C[C@@H](C)C[C@H](OC)[C@H](O)[C@@H](C)/C=C(\C)[C@H](OC(N)=O)[C@@H](OC)/C=C\C=C(/C)C(=O)NC(=CC1=O)C2=O	Luminal/ERBB2AMP
CC(/C=C/C(=O)NO)=C\[C@@H](C)C(=O)c1ccc(N(C)C)cc1	Luminal
O=c1[nH]c2ccccc2n1C1CCN(Cc2ccc(-c3nc4cc5[nH]cnc5cc4nc3-c3ccccc3)cc2)CC1	Luminal/ERBB2AMP
